test system: SF-295; experiment: NCI tumour cell line growth inhibition, 48 h
Activity calls are given as the source filed them. Cut-off read from the data, not from the text of the source: active = GI50 up to about 1.1 µM and inactive = higher.
Select the correct class. Options are 1 = active, -1 = inactive and nothing else.

# example entries with known answers
[[record]]
compound = "N#C/C(N)=N/c1ccccc1"
class_label = -1

[[record]]
compound = "CC(=O)O[C@@H]1[C@H]2[C@@H](OC(=O)c3ccccc3)[C@@H](C)C[C@]2(O)[C@H](OC(C)=O)[C@@]2(C)[C@@H]3C[C@@](C)(OC(C)=O)C[C@@H](OC(C)=O)[C@@]3(OC(C)=O)C[C@@]12C"
class_label = -1

[[record]]
compound = "CCc1cccc(C)c1N1C(=O)C(=O)C(c2nc3ccccc3o2)C(=O)C1=O"
class_label = -1


Q: How was C(=N\N=C1NCCCN1)/c1ccc2ccccc2c1 classified in this test?
A: -1

Q: How was COc1ccc(C(=O)/C=C/c2cc(O)c(O)cc2F)c(OC)c1 classified in this test?
A: -1

Q: How was CSC(=O)c1sc(SC)[n+](-c2ccccc2)c1O classified in this test?
A: -1

Q: How was Cc1cccc(C(C)C)c1N1C(=O)C(=O)C(c2nc3ccccc3o2)C(=O)C1=O classified in this test?
A: -1

Q: How was C/C(=N\Nc1nc2ccccc2[nH]1)c1cccc[n+]1[O-] classified in this test?
A: -1

Q: How was Cc1ccc([N+](=O)[O-])cc1S(=O)(=O)Nc1ccc(C2=NN(S(=O)(=O)c3cc([N+](=O)[O-])ccc3C)C(c3ccco3)C2)cc1 (centres undefined) classified in this test?
A: -1

Q: How was CSCCCNC(=O)c1csc([C@@H](CSC)NC(=O)CCNC(=O)[C@@H](NC(=O)OCC(Br)(Br)Br)C(C)O)n1 (some centres undefined) classified in this test?
A: -1

Q: How was Nc1nnc(N)n1N classified in this test?
A: -1

Q: How was S=c1[nH]nc(Cn2c3ccc(Br)cc3c3nc4ccccc4nc32)o1 classified in this test?
A: -1

Q: How was COC(=O)CCC(NC(=S)N/N=C/c1ccccn1)C(=O)OC (centres undefined) classified in this test?
A: -1

Q: How was O=[N+]([O-])c1cc(C(F)(F)F)ccc1S(=O)(=O)N[C@@H]1CCCC[C@H]1NS(=O)(=O)c1ccc(C(F)(F)F)cc1[N+](=O)[O-] classified in this test?
A: -1
